Could you please report measured pKi for the items listed next?
- target.or.test.system: Serotonin 3 (5-HT3) receptor
- test.summary: Compound was tested for the inhibition of [3H]GR-65630 binding to 5-hydroxytryptamine 3 receptor expressed in NG 108-15 cells
- Type: cell-based
- condition.details: read-out: Ki
pKi: −log10 of the molar value.

Query: Would you mind telling me what pKi value was observed for COc1ccccc1C1(O)CCNCC1 ?
Result: < 5.00

Query: Would you mind telling me what pKi value was observed for c1ccc2nc(N3CCCCC3)ccc2c1 ?
Result: < 5.00

Query: Would you mind telling me what pKi value was observed for Cc1ccc(NC(=N)N=C(N)N)cc1 ?
Result: < 5.00
